Assayed system: IKZF1 (Homo sapiens, UniProt Q13422+Q96SW2)
Construct: expressed in transfected cells
Sequence (Q13422 whole entry): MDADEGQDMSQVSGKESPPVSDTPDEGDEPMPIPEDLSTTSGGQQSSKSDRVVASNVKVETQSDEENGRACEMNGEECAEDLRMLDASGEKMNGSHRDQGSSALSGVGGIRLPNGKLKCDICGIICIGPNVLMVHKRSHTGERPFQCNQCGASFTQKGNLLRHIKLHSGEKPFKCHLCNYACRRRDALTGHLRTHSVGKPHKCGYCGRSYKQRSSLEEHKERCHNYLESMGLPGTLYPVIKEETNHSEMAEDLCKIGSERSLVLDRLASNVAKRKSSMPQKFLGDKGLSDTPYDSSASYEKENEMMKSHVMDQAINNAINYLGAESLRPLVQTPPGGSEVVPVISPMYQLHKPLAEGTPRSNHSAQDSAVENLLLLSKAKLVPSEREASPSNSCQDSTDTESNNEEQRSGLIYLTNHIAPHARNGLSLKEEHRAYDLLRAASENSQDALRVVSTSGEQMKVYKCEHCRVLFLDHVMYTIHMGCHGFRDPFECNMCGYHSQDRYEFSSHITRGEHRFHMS
Sequence (Q96SW2 whole entry): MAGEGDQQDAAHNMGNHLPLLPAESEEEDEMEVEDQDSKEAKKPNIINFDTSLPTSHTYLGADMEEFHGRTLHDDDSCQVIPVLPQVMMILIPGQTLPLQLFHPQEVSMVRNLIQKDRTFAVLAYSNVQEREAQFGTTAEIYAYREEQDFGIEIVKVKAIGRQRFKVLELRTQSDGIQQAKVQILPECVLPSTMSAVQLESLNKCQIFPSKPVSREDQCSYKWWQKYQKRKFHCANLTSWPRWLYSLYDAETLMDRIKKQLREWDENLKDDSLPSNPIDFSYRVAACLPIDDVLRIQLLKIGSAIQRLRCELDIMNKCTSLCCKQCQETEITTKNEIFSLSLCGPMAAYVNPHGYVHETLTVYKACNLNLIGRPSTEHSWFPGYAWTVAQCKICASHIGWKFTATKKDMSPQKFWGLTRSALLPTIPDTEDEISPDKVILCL
Sequence (Q16531 whole entry partner): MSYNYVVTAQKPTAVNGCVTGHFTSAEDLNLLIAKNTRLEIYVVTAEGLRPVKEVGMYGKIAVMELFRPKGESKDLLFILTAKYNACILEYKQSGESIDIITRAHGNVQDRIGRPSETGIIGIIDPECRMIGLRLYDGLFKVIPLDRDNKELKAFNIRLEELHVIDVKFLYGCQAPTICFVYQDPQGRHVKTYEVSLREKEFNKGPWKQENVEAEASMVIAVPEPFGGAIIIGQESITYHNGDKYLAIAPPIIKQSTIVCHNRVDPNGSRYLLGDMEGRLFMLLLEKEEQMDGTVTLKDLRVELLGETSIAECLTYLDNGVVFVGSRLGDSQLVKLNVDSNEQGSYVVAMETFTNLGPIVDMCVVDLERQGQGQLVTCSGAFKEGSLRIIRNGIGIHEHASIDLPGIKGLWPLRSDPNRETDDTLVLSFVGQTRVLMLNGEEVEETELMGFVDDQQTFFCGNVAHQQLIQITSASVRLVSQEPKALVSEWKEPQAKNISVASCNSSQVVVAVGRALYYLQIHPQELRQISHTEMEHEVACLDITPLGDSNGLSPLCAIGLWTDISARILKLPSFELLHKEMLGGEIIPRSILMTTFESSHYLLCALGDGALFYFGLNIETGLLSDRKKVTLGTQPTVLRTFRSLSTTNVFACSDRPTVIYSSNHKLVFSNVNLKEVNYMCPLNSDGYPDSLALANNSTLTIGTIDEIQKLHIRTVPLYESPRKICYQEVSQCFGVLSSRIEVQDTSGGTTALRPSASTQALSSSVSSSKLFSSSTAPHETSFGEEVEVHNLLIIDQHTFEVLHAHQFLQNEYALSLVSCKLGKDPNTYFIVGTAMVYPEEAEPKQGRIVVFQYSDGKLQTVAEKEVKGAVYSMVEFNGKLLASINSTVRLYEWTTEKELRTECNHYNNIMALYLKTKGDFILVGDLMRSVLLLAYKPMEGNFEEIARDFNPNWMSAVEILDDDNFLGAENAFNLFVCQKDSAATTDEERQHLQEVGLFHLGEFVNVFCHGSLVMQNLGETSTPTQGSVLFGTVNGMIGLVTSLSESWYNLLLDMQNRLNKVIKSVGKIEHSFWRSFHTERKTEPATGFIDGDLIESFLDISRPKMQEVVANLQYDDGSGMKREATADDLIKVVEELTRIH
Test details: HiBiT protein tagging assay, in vitro IKZF1 degradation (HEK293)
Assay type: cell-based
Measurement conditions: HEK293, 18-24 hr incubation, normalized to DMSO control, read-out: IKZF1 Dmax (maximum degradation at the highest concentration tested)
Assay readout: Dmax

Compound	Value observed
O=C1CCC(N2Cc3cc(CN[C@@H]4CCCC[C@H]4OCc4ccccc4)ccc3C2=O)C(=O)N1 (some centres unmarked)	53%
O=C1CCC(N2Cc3cc(CNC4CC(c5ccccc5)CN(Cc5ccccc5)C4)ccc3C2=O)C(=O)N1 (centres unmarked)	71%
O=C1CCC(N2Cc3cc(CN[C@H]4CCC[C@@H](O)C4)ccc3C2=O)C(=O)N1 (some centres unmarked)	45%
O=C1CCC(N2Cc3cc(CN[C@@H]4CCCC[C@@H]4CO)ccc3C2=O)C(=O)N1 (some centres unmarked)	20%
C[C@@H](NCc1ccc2c(c1)CN(C1CCC(=O)NC1=O)C2=O)c1ccccc1 (some centres unmarked)	71%
O=C1CCC(N2Cc3cc(CN[C@@H]4CCCC[C@H]4Cc4ccccc4)ccc3C2=O)C(=O)N1 (some centres unmarked)	73%
CCN1CCC(NCc2ccc3c(c2)CN(C2CCC(=O)NC2=O)C3=O)CC1 (centres unmarked)	25%
O=C1CCC(N2Cc3cc(CNC4Cc5ccccc5N(Cc5ccccc5)C4)ccc3C2=O)C(=O)N1 (centres unmarked)	38%

###

Assayed system: IKZF2 (Homo sapiens, UniProt Q96SW2+Q9UKS7)
Construct: expressed in transfected cells
Sequence (Q9UKS7 1-500 isoform Q9UKS7-2): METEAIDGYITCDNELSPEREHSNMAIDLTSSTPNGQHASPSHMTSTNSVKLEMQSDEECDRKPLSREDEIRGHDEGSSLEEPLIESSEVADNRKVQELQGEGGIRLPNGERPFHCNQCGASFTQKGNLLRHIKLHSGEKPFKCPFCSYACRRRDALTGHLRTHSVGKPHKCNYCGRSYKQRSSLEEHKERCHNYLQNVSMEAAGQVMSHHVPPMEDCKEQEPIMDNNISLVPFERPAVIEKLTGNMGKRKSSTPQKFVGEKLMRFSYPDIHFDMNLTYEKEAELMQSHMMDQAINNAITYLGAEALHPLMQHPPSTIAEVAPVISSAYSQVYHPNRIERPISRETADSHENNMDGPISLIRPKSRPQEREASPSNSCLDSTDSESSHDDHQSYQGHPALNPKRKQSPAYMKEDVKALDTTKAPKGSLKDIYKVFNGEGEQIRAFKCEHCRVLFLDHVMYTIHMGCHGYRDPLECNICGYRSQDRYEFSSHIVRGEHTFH
Sequence (Q96SW2 whole entry): as the sequence (Q96SW2 whole entry) above
Sequence (Q16531 whole entry partner): as the sequence (Q16531 whole entry partner) above
Test details: HiBiT protein tagging assay, in vitro IKZF2 degradation (HEK293)
Format: cell-based
Measurement conditions: HiBiT assay, HEK293, 18-24 hr incubation, normalized to DMSO control; read-out: IKZF2 EC50
Measured DC50 values are reported for all entries that follow.
Assay readout: DC50 (nM)

Compound	Value observed
O=C1CCC(N2Cc3cc(CN[C@@H]4CCCN(Cc5ccccn5)C4)ccc3C2=O)C(=O)N1 (some centres unmarked)	138
O=C1CCC(N2Cc3cc(CN[C@@H]4CCCN(Cc5ccccc5Cl)C4)ccc3C2=O)C(=O)N1 (some centres unmarked)	7
O=C1CCC(N2Cc3cc(CN[C@H]4CCCC[C@H]4CO)ccc3C2=O)C(=O)N1 (some centres unmarked)	4100
O=C1CCC(N2Cc3cc(CN[C@H]4CCc5ccccc5C4)ccc3C2=O)C(=O)N1 (some centres unmarked)	23
O=C1CCC(N2Cc3cc(CN[C@@H]4CCCN(Cc5cccnc5)C4)ccc3C2=O)C(=O)N1 (some centres unmarked)	318
O=C1CCC(N2Cc3cc(CN[C@@H]4CCC[C@H](Oc5ccccc5)C4)ccc3C2=O)C(=O)N1 (some centres unmarked)	41
O=C1CCC(N2Cc3cc(CNC45CCCC(O)(C4)C5)ccc3C2=O)C(=O)N1 (centres unmarked)	243
O=C1CCC(N2Cc3cc(CN[C@@H]4CCCC[C@H]4CO)ccc3C2=O)C(=O)N1 (some centres unmarked)	1200
COC[C@@H]1CCCC[C@@H]1NCc1ccc2c(c1)CN(C1CCC(=O)NC1=O)C2=O (some centres unmarked)	46
O=C1CCC(N2Cc3cc(CN[C@@H]4CCC[C@H](Cc5ccccc5Cl)C4)ccc3C2=O)C(=O)N1 (some centres unmarked)	8
C[C@@H]1CCCC[C@@H]1NCc1ccc2c(c1)CN(C1CCC(=O)NC1=O)C2=O (some centres unmarked)	141
O=C1CCC(N2Cc3cc(CNC4CCC5(CC4)COC5)ccc3C2=O)C(=O)N1 (centres unmarked)	401
O=C1CCC(N2Cc3cc(CN[C@H]4CCC[C@@H]4NCc4ccccc4)ccc3C2=O)C(=O)N1 (some centres unmarked)	443
O=C1CCC(N2Cc3cc(CNC4CCC(F)(F)CC4)ccc3C2=O)C(=O)N1 (centres unmarked)	104
O=C1CCC(N2Cc3cc(CN[C@@H]4CCCN(C(c5ccccc5)C(F)(F)F)C4)ccc3C2=O)C(=O)N1 (some centres unmarked)	56
NC(=O)C1CCCC(NCc2ccc3c(c2)CN(C2CCC(=O)NC2=O)C3=O)C1 (centres unmarked)	3800
O=C1CCC(N2Cc3cc(CNCc4cc5ccccc5[nH]4)ccc3C2=O)C(=O)N1 (centres unmarked)	276
CC[C@H]1CCCC[C@H]1NCc1ccc2c(c1)CN(C1CCC(=O)NC1=O)C2=O (some centres unmarked)	177
C[C@@H](CO)NCc1ccc2c(c1)CN(C1CCC(=O)NC1=O)C2=O (some centres unmarked)	460
O=C1CCC(N2Cc3cc(CNC4CCCC4)ccc3C2=O)C(=O)N1 (centres unmarked)	143
O=C1CCC(N2Cc3cc(CN[C@@H]4CCCN(Cc5cccc(Cl)c5)C4)ccc3C2=O)C(=O)N1 (some centres unmarked)	11
O=C1CCC(N2Cc3cc(CNC4(CCc5ccccc5)CCCCC4)ccc3C2=O)C(=O)N1 (centres unmarked)	172
O=C1CCC(N2Cc3cc(CN[C@@H]4CCCN(C(=O)c5ccccc5)C4)ccc3C2=O)C(=O)N1 (some centres unmarked)	2000
O=C1CCC(N2Cc3cc(CN[C@@H]4CCCC[C@@H]4Cc4ccccc4)ccc3C2=O)C(=O)N1 (some centres unmarked)	154
O=C1CCC(N2Cc3cc(CN[C@H]4CCC[C@@H](Cc5ccccc5)C4)ccc3C2=O)C(=O)N1 (some centres unmarked) [Example 116]	68
O=C1CCC(N2Cc3cc(CNC4CCC(Cc5ccccc5)CC4)ccc3C2=O)C(=O)N1 (centres unmarked)	117
O=C1CCC(N2Cc3cc(CNC4CCN(Cc5ccccc5)CC4)ccc3C2=O)C(=O)N1 (centres unmarked)	342
O=C1CCC(N2Cc3cc(CNC4CCC4)ccc3C2=O)C(=O)N1 (centres unmarked)	373
N#C[C@H]1CC[C@@H](NCc2ccc3c(c2)CN(C2CCC(=O)NC2=O)C3=O)CC1 (some centres unmarked)	182
O=C1CCC(N2Cc3cc(CNC4CC(c5ccccc5)CN(Cc5ccccc5)C4)ccc3C2=O)C(=O)N1 (centres unmarked)	121
C[C@H](c1ccccc1)N1CCC[C@@H](NCc2ccc3c(c2)CN(C2CCC(=O)NC2=O)C3=O)C1 (some centres unmarked)	29
O=C1CCC(N2Cc3cc(CNC45CCC(CC4)C5)ccc3C2=O)C(=O)N1 (centres unmarked)	37

###

Assayed system: IKZF2 (Homo sapiens, UniProt Q96SW2+Q9UKS7)
Construct: expressed in transfected cells
Test details: HiBiT protein tagging assay, in vitro IKZF2 degradation (HEK293)
Format: cell-based
Measurement conditions: HiBiT assay, HEK293, 18-24 hr incubation, normalized to DMSO control; read-out: IKZF2 EC50
Quick rule for you: DC50 under 300 nM gets YES, anything else gets NO.

Compound	Category
CC1(c2ccccc2)CCC(NCc2ccc3c(c2)CN(C2CCC(=O)NC2=O)C3=O)CC1 (centres unmarked) [Example 103]	YES
C[C@@H]1CCCC[C@H]1NCc1ccc2c(c1)CN(C1CCC(=O)NC1=O)C2=O (some centres unmarked) [Example 101]	YES
O=C1CCC(N2Cc3cc(CN[C@@H]4CCC[C@H](OCc5ccccc5)C4)ccc3C2=O)C(=O)N1 (some centres unmarked) [Example 112]	YES
CO[C@H]1CC[C@H](NCc2ccc3c(c2)CN(C2CCC(=O)NC2=O)C3=O)CC1 (some centres unmarked) [Example 76]	YES
O=C1CCC(N2Cc3cc(CN[C@H]4CCC[C@@H](O)C4)ccc3C2=O)C(=O)N1 (some centres unmarked) [Example 81]	NO
O=C1CCC(N2Cc3cc(CN[C@@H]4CCCN(CCc5ccccc5)C4)ccc3C2=O)C(=O)N1 (some centres unmarked) [Example 29]	NO
O=C1CCC(N2Cc3cc(CNCCc4ccccc4Cl)ccc3C2=O)C(=O)N1 (centres unmarked) [Example 44]	YES
O=C1CCC(N2Cc3cc(CN[C@H]4CC[C@@](O)(c5ccccc5)CC4)ccc3C2=O)C(=O)N1 (some centres unmarked) [Example 66]	NO

###

Measured Dmax values are reported for all entries that follow.
Assayed system: IKZF2 (Homo sapiens, UniProt Q96SW2+Q9UKS7)
Construct: expressed in transfected cells
Test details: HiBiT protein tagging assay, in vitro IKZF2 degradation (HEK293)
Type: cell-based
Measurement conditions: HEK293, HiBiT assay, HEK293, 18-24 hr incubation, normalized to DMSO control; read-out: IKZF2 Dmax (maximum degradation at the highest concentration tested)
Assay readout: Dmax

Molecule	Assay readout	Value observed
O=C1CCC(N2Cc3cc(CNC4CCCC5(CC5)C4)ccc3C2=O)C(=O)N1 (stereo not drawn) [Example 132]	Dmax	84%
COC(=O)C1(C)CCCC(NCc2ccc3c(c2)CN(C2CCC(=O)NC2=O)C3=O)C1 (stereo not drawn) [Example 144]	Dmax	88%
O=C1CCC(N2Cc3cc(CN[C@@H]4CCCN(Cc5ccccc5)C4)ccc3C2=O)C(=O)N1 (stereo partly drawn) [Example 20]	Dmax	97%
O=C1CCC(N2Cc3cc(CN[C@@H]4CCC[C@H](COCc5ccccc5)C4)ccc3C2=O)C(=O)N1 (stereo partly drawn) [Example 146]	Dmax	94%
O=C1CCC(N2Cc3cc(CNC4CCCC(Cn5ncc6ccccc65)C4)ccc3C2=O)C(=O)N1 (stereo not drawn) [Example 122]	Dmax	96%
O=C1CCC(N2Cc3cc(CNC4CCCC(CO)C4)ccc3C2=O)C(=O)N1 (stereo not drawn) [Example 97]	Dmax	66%
O=C1CCC(N2Cc3cc(CN[C@H]4CCCC[C@H]4OCc4ccccc4)ccc3C2=O)C(=O)N1 (stereo partly drawn) [Example 120]	Dmax	97%
O=C1CCC(N2Cc3cc(CNC4CC5CCC4C5)ccc3C2=O)C(=O)N1 (stereo not drawn) [Example 42]	Dmax	65%
C[C@H]1CCCC[C@H]1NCc1ccc2c(c1)CN(C1CCC(=O)NC1=O)C2=O (stereo partly drawn) [Example 78]	Dmax	81%
CO[C@H]1CC[C@H](NCc2ccc3c(c2)CN(C2CCC(=O)NC2=O)C3=O)CC1 (stereo partly drawn) [Example 76]	Dmax	90%
O=C1CCC(N2Cc3cc(CNC4CCC5(CC4)COC5)ccc3C2=O)C(=O)N1 (stereo not drawn) [Example 60]	Dmax	84%
O=C1CCC(N2Cc3cc(CN[C@@H]4CCCC[C@@H]4CO)ccc3C2=O)C(=O)N1 (stereo partly drawn) [Example 34]	Dmax	70%
O=C1CCC(N2Cc3cc(CN[C@@H]4CCC[C@H](O)C4)ccc3C2=O)C(=O)N1 (stereo partly drawn) [Example 82]	Dmax	71%
O=C1CCC(N2Cc3cc(CN[C@@H]4CCCN(Cc5cccnc5)C4)ccc3C2=O)C(=O)N1 (stereo partly drawn) [Example 124]	Dmax	96%
O=C1CCC(N2Cc3cc(CNC4CCN(Cc5ccccc5)CC4)ccc3C2=O)C(=O)N1 (stereo not drawn) [Example 1]	Dmax	67%
O=C1CCC(N2Cc3cc(CN[C@@H]4CCCC[C@H]4OCc4ccccc4Cl)ccc3C2=O)C(=O)N1 (stereo partly drawn) [Example 145]	Dmax	92%
O=C1CCC(N2Cc3cc(CNC4CCN(c5ccccc5)CC4)ccc3C2=O)C(=O)N1 (stereo not drawn) [Example 2]	Dmax	83%
O=C1CCC(N2Cc3cc(CNC4CCC5(CCC5)CC4)ccc3C2=O)C(=O)N1 (stereo not drawn) [Example 59]	Dmax	74%
N#CC[C@H]1CC[C@H](NCc2ccc3c(c2)CN(C2CCC(=O)NC2=O)C3=O)CC1 (stereo partly drawn) [Example 63]	Dmax	91%
O=C1CCC(N2Cc3cc(CNC4CCC5(CC4)CC5)ccc3C2=O)C(=O)N1 (stereo not drawn) [Example 58]	Dmax	81%
O=C1CCC(N2Cc3cc(CNC4(c5ccc(F)cc5)CCCCC4)ccc3C2=O)C(=O)N1 (stereo not drawn) [Example 153]	Dmax	36%
